From: patent US20260035367A1

Please go through the items and note down their log10 of IC50.
- SYSTEM_NAME: Recombinant human PKC-theta (His-tagged 362-706) (Homo sapiens, UniProt Q04759)
- Construct: Recombinant human PKC-theta (His-tagged 362-706); His
- Sequence (Q04759 362-706): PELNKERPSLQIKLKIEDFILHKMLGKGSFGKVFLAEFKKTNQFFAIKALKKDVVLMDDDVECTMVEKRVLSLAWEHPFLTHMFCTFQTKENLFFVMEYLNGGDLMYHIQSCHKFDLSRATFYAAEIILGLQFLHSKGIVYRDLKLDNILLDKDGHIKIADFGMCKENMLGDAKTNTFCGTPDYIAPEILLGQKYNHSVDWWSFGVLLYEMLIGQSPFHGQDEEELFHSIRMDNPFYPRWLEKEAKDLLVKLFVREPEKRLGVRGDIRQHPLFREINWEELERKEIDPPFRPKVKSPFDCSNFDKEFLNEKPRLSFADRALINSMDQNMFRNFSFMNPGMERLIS
- TEST_PROTOCOL: PKC-theta inhibition assay (HTRF KinEASE kit)
- Assay type: biochemical
- CONDITION_SET: ATP 6.5 μM; STK substrate 525 nM; read-out: PKC-theta HTRF pIC50 (converted)
Please interpret these as log10 of IC50 where IC50 is in nM.

Reported log10 of IC50, compound CC1(Cc2ccccc2)C(=O)Nc2nccc(-c3cccc(N4CCNCC4)c3)c21 (stereo not drawn) : ____ 3.00

Reported log10 of IC50, compound "CC1(C)C(=O)Nc2nccc(-c3cc(C(F)(F)F)nc(N4CCNCC4)n3)c21" : ____ 1.30

Reported log10 of IC50, compound CCC1(C)C(=O)Nc2nccc(-c3cc(Cl)cc(N4CCNC[C@H]4C)n3)c21 (stereo partly drawn) : ____ 0.40

Reported log10 of IC50, compound CC[C@@]1(O)C(=O)Nc2nccc(-c3cc(C(F)(F)F)cc(N4CCNC[C@H]4C)n3)c21 (single isomer, unassigned) : ____ 0.50

Reported log10 of IC50, compound "C[C@@H]1CNC[C@H](C)N1c1cc(C(F)(F)F)cc(-c2ccnc3c2C(C)(C)C(=O)N3)n1" : ____ 0.80

Reported log10 of IC50, compound "C[C@H]1CN(c2ccc(Cl)c(-c3ccnc4c3[C@](C)(O)C(=O)N4)c2)CCN1" : ____ 1.80

Reported log10 of IC50, compound C[C@H]1CNCCN1c1cc(C(F)(F)F)cc(-c2ccnc3c2[C@](C)(O)C(=O)N3)n1 (single isomer, unassigned) : ____ 1.10

Reported log10 of IC50, compound C[C@@H]1CNCCN1c1cc(C(F)(F)F)cc(-c2ccnc3c2[C@](C)(O)C(=O)N3)n1 (single isomer, unassigned) : ____ 0.30

Reported log10 of IC50, compound "CC1(C)C(=O)Nc2nccc(-c3cc(N4CCNCC4)cc(C(F)(F)F)c3)c21" : ____ 2.00

Reported log10 of IC50, compound CC1(C)C(=O)Nc2nccc(-c3cc(C(F)(F)F)cc(C4(CO)CCNC4)n3)c21 (stereo not drawn) : ____ 0.40

Reported log10 of IC50, compound C[C@@H]1CN(c2cc(Cl)cc(-c3ccnc4c3[C@](C)(O)C(=O)N4)n2)CCN1 (single isomer, unassigned) : ____ 0.50

Reported log10 of IC50, compound CCC1(O)C(=O)Nc2nccc(-c3cc(C(F)(F)F)cc(N4CCNC[C@H]4C)n3)c21 (stereo partly drawn) : ____ 0.60

Reported log10 of IC50, compound "C[C@@H]1CN(c2cc(C(F)(F)F)cc(-c3ccnc4c3C(C)(C)C(=O)N4)n2)[C@H](C)CN1" : ____ 0.50

Reported log10 of IC50, compound "C[C@H]1CCN(c2cc(C(F)(F)F)cc(-c3ccnc4c3C(C)(C)C(=O)N4)n2)CCN1" : ____ 0.80

Reported log10 of IC50, compound "O=C1Nc2nccc(-c3cc(F)cc(N4CCNCC4)c3)c2C12CCCC2" : ____ 1.30
